TARGET_OR_TEST_SYSTEM: KRAS G13D (Homo sapiens (Human), UniProt P01116+P62937, G13D)
Sequence (P01116-2 other isoform, or with tags, fused parts or gaps G13D, one chain of several): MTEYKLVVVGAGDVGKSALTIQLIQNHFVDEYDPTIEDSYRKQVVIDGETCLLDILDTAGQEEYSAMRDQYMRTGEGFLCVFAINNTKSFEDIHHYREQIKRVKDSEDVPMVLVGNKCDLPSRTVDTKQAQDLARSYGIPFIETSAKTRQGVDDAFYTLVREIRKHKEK
EXPERIMENT_SUMMARY: Ras-Raf (BRAF RBD) disruption / FRET / MOA assay, KRAS G13D
Assay type: biochemical
CONDITION_INFO: read-out: IC50* KRAS G13D FRET data
Below: a set of entries, each annotated with reported IC50.

{"COMPOUND": "C=CC(=O)N1CCOC2(CCN(C(=O)N(C)[C@H](C(=O)N[C@H]3Cc4cccc(n4)-c4ccc5c(c4)c(c(-c4cccnc4[C@H](C)OC)n5CC(F)(F)F)CC(C)(C)COC(=O)[C@@H]4CCCN(N4)C3=O)C(C)C)CC2)C1 (atropisomer, axis not shown)", "RESULT": "1 to 10 µM"}

Now consider a different compound.
Challenge: Give its IC50 value. Item: CCn1c(-c2cccnc2[C@H](C)OC)c2c3cc(ccc31)-c1csc(n1)C[C@H](NC(=O)[C@H](C(C)C)N(C)C(=O)[C@H]1CCC(C(=O)/C=C/CN(C)C)C1)C(=O)N1CCC[C@H](N1)C(=O)OCC(C)(C)C2 (some centres unmarked)
Response given: 1 to 10 µM

---

TARGET_OR_TEST_SYSTEM: KRAS G12D (Homo sapiens (Human), UniProt P01116+P62937, G12D)
Sequence (P01116-2 other isoform, or with tags, fused parts or gaps G12D): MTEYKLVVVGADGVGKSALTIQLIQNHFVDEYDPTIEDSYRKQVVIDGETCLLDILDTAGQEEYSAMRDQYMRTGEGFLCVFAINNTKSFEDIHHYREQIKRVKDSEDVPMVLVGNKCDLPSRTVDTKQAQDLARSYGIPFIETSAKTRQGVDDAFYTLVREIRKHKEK
Sequence (P62937 whole entry): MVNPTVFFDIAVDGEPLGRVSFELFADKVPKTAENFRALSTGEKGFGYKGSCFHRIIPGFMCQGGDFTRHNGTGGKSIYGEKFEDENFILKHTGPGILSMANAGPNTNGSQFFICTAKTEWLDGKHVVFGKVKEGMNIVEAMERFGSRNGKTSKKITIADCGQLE
EXPERIMENT_SUMMARY: Ras-Raf (BRAF RBD) disruption / FRET / MOA assay, KRAS G12D
Type: biochemical
CONDITION_INFO: Ras-Raf disruption/FRET/MOA assay; class symbols; read-out: KRAS G12D FRET data IC50
Protocol: The purpose of this biochemical assay is to measure the ability of test compounds to facilitate ternary complex formation between a nucleotide-loaded Ras isoform and cyclophilin A; the resulting ternary complex disrupts binding to a BRAF^RBD construct, inhibiting Ras signaling through a RAF effector. Compound is present in plate wells as a 10-point 3-fold dilution series starting at a final concentration of 30 μM. […]
pIC50: −log10 of the molar value.
Below: a set of entries, each annotated with reported pIC50.

{"COMPOUND": "C#CC(=O)N1CC[C@H](C(=O)N(C)[C@H](C(=O)N[C@H]2Cc3cc(O)cc(c3)-c3ccc4c(c3)c(c(-c3cnccc3[C@H](C)OC)n4CC)CC(C)(C)COC(=O)[C@@H]3CCCN(N3)C2=O)C(C)C)C1 [Example A150]", "OBSERVATION_TYPE": "pIC50", "RESULT": "5.00 to 6.00"}

Now consider a different compound.
Challenge: Give its pIC50 value. Item: CC#CC(=O)N1CC[C@@H](C(=O)N(C)[C@H](C(=O)N[C@H]2Cc3cccc(c3)-c3ccc4c(c3)c(c(-c3cccnc3[C@H](C)OC)n4CC)CC(C)(C)COC(=O)[C@@H]3CCCN(N3)C2=O)C(C)C)C1 (atropisomer, axis not shown) [Example A487]
Response given: 5.00 to 6.00

---

Below: a set of entries, each annotated with reported IC50.
TARGET_OR_TEST_SYSTEM: KRAS WT (Homo sapiens (Human), UniProt P01116+P62937)
Sequence (P01116-2 other isoform, or with tags, fused parts or gaps, one chain of several): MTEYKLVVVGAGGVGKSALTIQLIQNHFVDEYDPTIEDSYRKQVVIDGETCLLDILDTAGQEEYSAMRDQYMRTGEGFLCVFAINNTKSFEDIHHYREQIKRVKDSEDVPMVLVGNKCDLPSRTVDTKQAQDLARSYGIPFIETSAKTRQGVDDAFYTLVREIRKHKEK
EXPERIMENT_SUMMARY: Ras-Raf (BRAF RBD) disruption / FRET / MOA assay, KRAS WT
Type: biochemical
CONDITION_INFO: read-out: IC50* KRAS WT FRET data

{"COMPOUND": "C=CC(=O)N1CC[C@H](C(=O)N(C)[C@H](C(=O)N[C@H]2Cc3cc(O)cc(c3)-c3ccc4c(c3)c(c(-c3cccc5c3COC5)n4CC)CC(C)(C)COC(=O)[C@@H]3CCCN(N3)C2=O)C(C)C)C1", "IC50": "1000 to 10000 nM"}

Now consider a different compound.
Challenge: Give its IC50 value. Item: C=CC(=O)N1CCC(C(=O)N(C)[C@H](C(=O)N[C@H]2Cc3cc(CF)cc(c3)-c3ccc4c(c3)c(c(-c3cccnc3[C@H](C)OC)n4CC(F)(F)F)CC(C)(C)COC(=O)[C@@H]3CCCN(N3)C2=O)C(C)C)C1 (some centres unmarked)
Response given: 100 to 1000 nM
